Hello, the source for this data is the supplement of paper PMC10567573, in case you need it.

B1: OAS1 (parent)
chain: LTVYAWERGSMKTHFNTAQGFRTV

Variants of: B1
procedure.summary: protein stability index of a GFP-peptide fusion (GPS, HEK-293T) (PSI 1-6); higher = more stable;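 note: lentivirally expressed fusions sorted by FACS into six bins by GFP to DsRed ratio, PSI derived from sequencing read proportions per bin multiplied by bin number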
cond: c terminus: a fixed tail appended
Where protein stability index equals or exceeds 3, the correct label is 1 (yes); where it does not, the label is 0 (no).

Assess whether reported protein stability index for "LTVYAWERGSMKTHFNTAQGFRTE" sits at 3 or higher.
0 (no)

Assess whether reported protein stability index for "LTVYAWECGSMKTHFNTAQGFRTV" sits at 3 or higher.
0 (no)

Assess whether reported protein stability index for "LFVYAWERGSMKTHFNTAQGFRTV" sits at 3 or higher.
1 (yes)

Assess whether reported protein stability index for "LTVYAWERGLMKTHFNTAQGFRTV" sits at 3 or higher.
0 (no)

Assess whether reported protein stability index for "LTVYAWEDGSMKTHFNTAQGFRTV" sits at 3 or higher.
0 (no)

Assess whether reported protein stability index for "LTVYAWERGSMKTHFNTAQCFRTV" sits at 3 or higher.
0 (no)

Assess whether reported protein stability index for "LTVYALERGSMKTHFNTAQGFRTV" sits at 3 or higher.
0 (no)

Assess whether reported protein stability index for "LLVYAWERGSMKTHFNTAQGFRTV" sits at 3 or higher.
0 (no)

Assess whether reported protein stability index for "LTVYAYERGSMKTHFNTAQGFRTV" sits at 3 or higher.
0 (no)

Assess whether reported protein stability index for "LTVYAWERGSMKTHFNTAQVFRTV" sits at 3 or higher.
0 (no)

Assess whether reported protein stability index for "LTVYAWLRGSMKTHFNTAQGFRTV" sits at 3 or higher.
1 (yes)

Assess whether reported protein stability index for "LTVYAWDRGSMKTHFNTAQGFRTV" sits at 3 or higher.
0 (no)

Assess whether reported protein stability index for "LTVYAWERGSMKTHFNTKQGFRTV" sits at 3 or higher.
0 (no)

Assess whether reported protein stability index for "LTVYAWERGSMKTHFNTYQGFRTV" sits at 3 or higher.
1 (yes)

Assess whether reported protein stability index for "LTVYAWERGSMKTHFHTAQGFRTV" sits at 3 or higher.
0 (no)

Assess whether reported protein stability index for "LTVYAWERGSMKTHSNTAQGFRTV" sits at 3 or higher.
0 (no)

Assess whether reported protein stability index for "LTVYAWERKSMKTHFNTAQGFRTV" sits at 3 or higher.
0 (no)

Assess whether reported protein stability index for "LTVYAWERGSMKTHFLTAQGFRTV" sits at 3 or higher.
0 (no)
